Test: Solubility in water
Format: physicochemical
Conditions: 25° C.
measure name: solubility

* C[C@H](CN(C(=O)c1ccc(C#N)cc1)c1ccccn1)N1CCN(c2cccc3c2OCCO3)CC1 | ~51 mg/mL
